Target: Tumor necrosis factor (Homo sapiens)
Sequence (P01375 whole entry): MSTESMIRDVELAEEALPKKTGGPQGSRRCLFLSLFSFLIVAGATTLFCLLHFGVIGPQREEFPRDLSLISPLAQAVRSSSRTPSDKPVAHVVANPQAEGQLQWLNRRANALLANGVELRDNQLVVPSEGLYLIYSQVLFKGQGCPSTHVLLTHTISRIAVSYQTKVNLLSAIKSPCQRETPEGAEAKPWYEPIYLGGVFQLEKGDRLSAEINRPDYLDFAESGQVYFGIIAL
Test: Tested for inhibition of Tumor necrosis factor, alpha in THP cells
Format: functional, cell-based
Below, each entry is listed with its recorded EC50.
readout.kind: EC50 (nM)

# smiles.code, readout.kind, reading
data = [
    ("Cc1ccc(-n2nc(C(C)(C)C)cc2NC(=O)Nc2ccc(OCCn3ccnc3)c3ccccc23)cc1", "EC50", 36),
    ("Cc1ccc(-n2nc(C(C)(C)C)cc2NC(=O)Nc2ccc(OCCN3CCOCC3)c3ccccc23)cc1", "EC50", 18),
    ("COc1ccc(-n2nc(C(C)(C)C)cc2NC(=O)Nc2ccc(OCCN3CCOCC3)c3ccccc23)cn1", "EC50", 42),
    ("CC(C)(C)c1cc(NC(=O)Nc2ccc(OCCN3CCOCC3)c3ccccc23)n(-c2cccc(N)c2)n1", "EC50", 11),
    ("Cc1ccc(-n2nc(C(C)(C)C)cc2NC(=O)Nc2ccc(OCCc3ccncc3)c3ccccc23)cc1", "EC50", 20),
    ("Cc1ccc(-n2nc(C(C)(C)C)cc2NC(=O)Nc2ccc(OCCN3CCOCC3)c3ccccc23)cn1", "EC50", 19),
    ("Cc1ccc(-n2nc(C(C)(C)C)cc2NC(=O)Nc2ccc(OCCN3C[C@H](C)O[C@@H](C)C3)c3ccccc23)cc1", "EC50", 16),
    ("Cc1ccc(-n2nc(C(C)(C)C)cc2NC(=O)Nc2ccc(OCCN3CC[S+]([O-])CC3)c3ccccc23)cc1", "EC50", 50),
    ("CC(C)(C)c1cc(NC(=O)Nc2ccc(OCCN3CCOCC3)c3ccccc23)n(-c2ccccc2)n1", "EC50", 9),
    ("CC(C)(C)c1cc(NC(=O)Nc2ccc(OCCN3CCOCC3)c3ccccc23)n(-c2ccc(N)cc2)n1", "EC50", 9),
]

----------
Biological target: Mitogen-activated protein kinase 14 (Mus musculus)
Assay: Kd value and murine Mitogen-activated protein kinase p38 alpha complex was calculated
pKd: −log10 of the molar value.

# smiles.code, pKd
data = [
    ("Cc1ccc(-n2nc(C(C)(C)C)cc2NC(=O)Nc2ccc(OCCN3CCCCC3)c3ccccc23)cc1", 7.85),
    ("CC(C)(C)c1cc(NC(=O)Nc2ccc(OCCN3CCOCC3)c3ccccc23)n(-c2cccc(N)c2)n1", 9.64),
    ("Cc1ccc(-n2nc(C(C)(C)C)cc2NC(=O)Nc2ccc(OCCn3ccnc3)c3ccccc23)cc1", 10.13),
    ("Cc1ccc(-n2nc(C(C)(C)C)cc2NC(=O)Nc2ccc(OCCN3CC[S+]([O-])CC3)c3ccccc23)cc1", 9.40),
]

----------
Target: Mitogen-activated protein kinase 14 (Mus musculus) (UniProt P47811)
Sequence (P47811 whole entry): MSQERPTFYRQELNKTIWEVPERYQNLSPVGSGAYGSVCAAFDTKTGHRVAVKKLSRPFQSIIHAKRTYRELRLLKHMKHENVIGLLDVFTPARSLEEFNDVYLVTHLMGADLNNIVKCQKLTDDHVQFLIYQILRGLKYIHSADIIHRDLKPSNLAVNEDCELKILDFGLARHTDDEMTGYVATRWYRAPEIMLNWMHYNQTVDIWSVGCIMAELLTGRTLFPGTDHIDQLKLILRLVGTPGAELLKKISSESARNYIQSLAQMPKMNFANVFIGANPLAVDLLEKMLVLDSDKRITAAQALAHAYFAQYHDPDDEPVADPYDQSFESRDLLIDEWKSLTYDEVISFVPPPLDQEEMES

# smiles.code, Tm, °C
records = [
    ("Cc1ccc(-n2nc(C(C)(C)CO)cc2NC(=O)Nc2ccc(OCCN3CCOCC3)c3ccccc23)cc1", 53),
    ("Cn1nc(C(C)(C)C)cc1NC(=O)Nc1ccc(OCCN2CCOCC2)c2ccccc12", 54.5),
    ("O=C(Nc1ccc(OCCN2CCOCC2)c2ccccc12)Nc1ccnn1-c1ccccc1", 49.1),
    ("Cc1ccc(-n2nc(C(C)(C)C)cc2NC(=O)Nc2ccc(OCCN3CC[S+]([O-])CC3)c3ccccc23)cc1", 60.2),
    ("CC(C)c1cc(NC(=O)Nc2ccc(OCCN3CCOCC3)c3ccccc23)n(-c2ccccc2)n1", 56.6),
    ("Cc1ccc(-n2nc(C(C)(C)C)cc2NC(=O)Nc2ccc(OCCN3CCCCC3)c3ccccc23)cc1", 55.4),
    ("CC(=O)Nc1ccc(-n2nc(C(C)(C)C)cc2NC(=O)Nc2ccc(OCCN3CCOCC3)c3ccccc23)cc1", 53.4),
    ("Cc1ccc(-n2nc(C(C)(C)C)cc2NC(=O)Nc2ccc(OCCN3C[C@H](C)O[C@@H](C)C3)c3ccccc23)cc1", 62.1),
]
